Target: HCV NS5B polymerase (NS5BCΔ21) (Hepatitis C virus genotype 1b, UniProt P26663)
Assay: NS5B inhibition assay
Format: biochemical
Conditions: NS5B IC50 compared with compound 6a
ASSAY READOUT: fold enhancement of inhibitory activity relative to 5-methyl analog 6a

Worked cases, fold enhancement of inhibitory activity relative to 5-methyl analog 6a given:
MOLECULE: O=C(O)/C(O)=C/C(=O)c1ccc(Cl)s1 [Compound 7a]
RESULT: ~ 2 fold

MOLECULE: Cc1ccsc1C(=O)/C=C(\O)C(=O)O [Compound 11a]
RESULT: ~ 7 fold

MOLECULE: Cc1csc(C(=O)/C=C(\O)C(=O)O)c1 [Compound 10a]
RESULT: ~ 2 fold

Here is another molecule to look at.
Q: Reported fold enhancement of inhibitory activity relative to 5-methyl analog 6a for O=C(O)/C(O)=C/C(=O)c1ccc(Br)s1 [Compound 8a] : what is it?
Result: ~ 2 fold
